# assay_target: Protein deacetylase HDAC6 (Homo sapiens, UniProt Q9UBN7)
# Sequence (Q9UBN7 whole entry): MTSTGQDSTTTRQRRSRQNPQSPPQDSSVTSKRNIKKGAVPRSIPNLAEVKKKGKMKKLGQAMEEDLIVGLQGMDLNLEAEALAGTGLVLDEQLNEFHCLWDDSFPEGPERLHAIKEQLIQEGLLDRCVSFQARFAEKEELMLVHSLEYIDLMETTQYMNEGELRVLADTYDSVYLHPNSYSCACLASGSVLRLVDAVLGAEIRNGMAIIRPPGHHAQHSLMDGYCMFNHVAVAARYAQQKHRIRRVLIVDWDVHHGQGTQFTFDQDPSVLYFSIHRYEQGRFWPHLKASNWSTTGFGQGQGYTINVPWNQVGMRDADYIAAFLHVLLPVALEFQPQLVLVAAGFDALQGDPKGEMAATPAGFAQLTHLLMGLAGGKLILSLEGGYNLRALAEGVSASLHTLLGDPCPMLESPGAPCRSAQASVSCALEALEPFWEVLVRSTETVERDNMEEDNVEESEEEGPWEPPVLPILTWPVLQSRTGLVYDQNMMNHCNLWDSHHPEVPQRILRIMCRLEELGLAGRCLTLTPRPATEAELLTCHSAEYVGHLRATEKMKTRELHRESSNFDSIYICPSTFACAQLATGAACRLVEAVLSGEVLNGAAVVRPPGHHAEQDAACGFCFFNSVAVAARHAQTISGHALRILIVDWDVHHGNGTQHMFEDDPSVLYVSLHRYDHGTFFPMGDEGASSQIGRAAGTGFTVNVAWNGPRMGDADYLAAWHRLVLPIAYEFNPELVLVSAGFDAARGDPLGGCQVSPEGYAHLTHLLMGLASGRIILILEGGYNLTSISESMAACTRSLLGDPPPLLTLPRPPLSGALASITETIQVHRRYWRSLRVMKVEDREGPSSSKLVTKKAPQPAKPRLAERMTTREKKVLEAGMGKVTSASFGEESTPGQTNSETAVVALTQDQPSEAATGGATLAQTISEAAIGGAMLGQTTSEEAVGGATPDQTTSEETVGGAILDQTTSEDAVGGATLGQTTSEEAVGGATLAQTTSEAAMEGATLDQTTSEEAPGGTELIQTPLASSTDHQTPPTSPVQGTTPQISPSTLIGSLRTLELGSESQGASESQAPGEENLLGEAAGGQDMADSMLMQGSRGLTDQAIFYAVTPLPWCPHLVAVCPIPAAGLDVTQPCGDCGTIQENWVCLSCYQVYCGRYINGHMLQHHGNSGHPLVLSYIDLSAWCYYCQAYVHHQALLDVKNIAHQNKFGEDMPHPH
# method_notes: Inhibition of HDAC6 (unknown origin) using (FAM)-labeled acetylated peptide as substrate measured after 17 hrs by fluorescence assay
readout_type: IC50

Examples from the recorded data:
Request: Please give the measured IC50 for this molecule: CC(C)(C)OC(=O)Nc1cccc(-c2csc(NC(=O)CCCCCC(=O)NO)n2)c1
Response: < 0.00017 µM

Request: Recorded IC50 for Nc1cccc(-c2csc(NC(=O)CCCCCC(=O)Nc3ccccc3N)n2)c1 , please?
Response: > 30 µM

For the next question, use this molecule.
Request: Please give the measured IC50 for this molecule: CCOC(=O)Nc1cccc(-c2csc(NC(=O)CCCCCC(=O)Nc3ccccc3N)n2)c1
Response: > 30 µM
